The measurements presented in this section are drawn from the nanobody polyreactivity screen of Harvey et al. (2022).

assay-notes: yeast display, Sf9 membrane polyspecificity reagent, FACS + sequencing; frameworks hold sequencing errors

{"sequence-string": "QVQLVESGGGLVQAGGSLRLSCAASGSTFYTNAMGWYRQAPGKEREMVASITGGGSTYYADSVKGRFTISRDNAKNTVYLQMNSLKPEDTAVYYCDADNVGGGWEFDSWGQGTQVTVSS", "polyreactivity (PSR sort gate)": "low polyreactivity"}
{"sequence-string": "QVQLVESCGGLVQAGGSLPLSCAASGFTFYYYTMGWYRQAPGKERELVAVITGGGGSTYYADSVKGRFTISRDNAKNTVYLQMNSLKPEDTAVYYCAAKFYGWYRERGYDYWGQGTQVTVSS", "polyreactivity (PSR sort gate)": "high polyreactivity"}
{"sequence-string": "QVQLVESGGGLVQAGGSLRLSCAASGRIFFVNAMGWYRQAPGKERELVAAITYSGARTYYADSVKGRFTISRDHAKNTVYLQMNSLKPEDTAVYYCNADQRTASDQLEFDYWGQGTQVTVSS", "polyreactivity (PSR sort gate)": "low polyreactivity"}
{"sequence-string": "QVQLVESGGGLVQAGGSLLISCAASGSIFTCYAMGWYRQAPGKERELVAASTRGGSTYADSEKGRFTISRDNAKNTVYLQRKSLIPDVTGVYYCNAVYGVYDFKYWGQGTQVSVSS", "polyreactivity (PSR sort gate)": "low polyreactivity"}
{"sequence-string": "QVQLVESGGGLVQAGGSLRLSCAASGRTLYIYAMGWYRQAPGKERELVAAIRRIGGRTYYADSVKGRFTISRDNAKNTVYLQMNSLKPEDTAVYYCNARSYRLRFSEMDYWGQGTQVTVSS", "polyreactivity (PSR sort gate)": "high polyreactivity"}
